# assay: Half life in C57 mouse at 10 mg/kg, ip
# Format: ADME, organism-based
# Parameters: dose 10 mg/kg, route intraperitoneal
# condition set: in vivo
observable: half-life (h)
Just the number please, in h, no unit attached.

// half-life lookup, compound = "CN(C)CCCOc1cccc2c1nc(C(F)F)n2-c1nc(N2CCOCC2)nc(N2CCOCC2)n1" , result: 1.56

====

# experimental target: PI3-kinase p110-alpha/p85-alpha (Homo sapiens)
# Sequence (P27986 whole entry): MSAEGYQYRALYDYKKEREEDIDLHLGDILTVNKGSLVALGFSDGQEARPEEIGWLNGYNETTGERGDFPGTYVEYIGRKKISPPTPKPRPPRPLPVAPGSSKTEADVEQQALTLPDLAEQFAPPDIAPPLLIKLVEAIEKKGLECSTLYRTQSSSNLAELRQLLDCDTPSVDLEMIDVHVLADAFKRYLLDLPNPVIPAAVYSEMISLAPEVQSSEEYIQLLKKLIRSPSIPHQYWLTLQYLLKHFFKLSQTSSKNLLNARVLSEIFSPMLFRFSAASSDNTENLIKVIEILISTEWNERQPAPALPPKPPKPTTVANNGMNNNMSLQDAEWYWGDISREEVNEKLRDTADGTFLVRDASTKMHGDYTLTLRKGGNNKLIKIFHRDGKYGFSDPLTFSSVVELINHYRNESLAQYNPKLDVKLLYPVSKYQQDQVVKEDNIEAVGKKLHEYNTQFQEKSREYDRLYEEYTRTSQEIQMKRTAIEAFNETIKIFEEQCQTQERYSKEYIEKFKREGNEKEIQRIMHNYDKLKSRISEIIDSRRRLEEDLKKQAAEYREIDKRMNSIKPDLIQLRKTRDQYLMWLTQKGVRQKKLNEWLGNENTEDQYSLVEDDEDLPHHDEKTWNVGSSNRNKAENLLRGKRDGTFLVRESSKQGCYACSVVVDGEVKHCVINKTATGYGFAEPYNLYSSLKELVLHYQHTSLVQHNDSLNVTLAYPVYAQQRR
# Sequence (P42336 whole entry): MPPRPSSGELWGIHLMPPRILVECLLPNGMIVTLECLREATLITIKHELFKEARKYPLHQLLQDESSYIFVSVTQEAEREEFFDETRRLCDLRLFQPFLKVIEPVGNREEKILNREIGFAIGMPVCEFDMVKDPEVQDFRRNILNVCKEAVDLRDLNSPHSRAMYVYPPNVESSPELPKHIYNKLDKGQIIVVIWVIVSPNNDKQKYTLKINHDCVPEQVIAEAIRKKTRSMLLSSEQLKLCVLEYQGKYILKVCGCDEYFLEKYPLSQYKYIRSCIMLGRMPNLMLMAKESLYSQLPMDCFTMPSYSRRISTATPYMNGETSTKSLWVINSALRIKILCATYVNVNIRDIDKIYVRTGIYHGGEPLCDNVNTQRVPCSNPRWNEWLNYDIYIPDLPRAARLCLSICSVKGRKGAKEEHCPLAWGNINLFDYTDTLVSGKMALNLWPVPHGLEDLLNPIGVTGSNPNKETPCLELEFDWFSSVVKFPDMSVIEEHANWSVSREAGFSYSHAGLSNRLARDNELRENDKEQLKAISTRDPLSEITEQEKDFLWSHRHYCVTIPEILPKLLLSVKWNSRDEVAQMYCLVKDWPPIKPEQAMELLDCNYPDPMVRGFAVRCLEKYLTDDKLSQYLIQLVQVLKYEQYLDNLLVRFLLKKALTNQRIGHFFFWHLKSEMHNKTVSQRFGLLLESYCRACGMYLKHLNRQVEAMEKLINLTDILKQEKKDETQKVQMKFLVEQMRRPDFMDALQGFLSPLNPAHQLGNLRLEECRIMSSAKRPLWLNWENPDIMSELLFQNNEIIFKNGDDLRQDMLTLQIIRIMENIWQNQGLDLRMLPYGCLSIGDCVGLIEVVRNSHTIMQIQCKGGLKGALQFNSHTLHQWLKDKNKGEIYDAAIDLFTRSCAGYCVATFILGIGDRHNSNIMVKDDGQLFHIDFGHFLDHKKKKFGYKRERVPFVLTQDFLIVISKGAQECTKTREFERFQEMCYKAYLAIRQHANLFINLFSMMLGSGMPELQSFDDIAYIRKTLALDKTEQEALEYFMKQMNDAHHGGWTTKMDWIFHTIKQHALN
# assay: Inhibition of recombinant PI3K p110alpha/p85alpha (unknown origin) using phosphotidylinositol as susbstrate after 1 hr by thin layer paper chromatographic analysis in presence of [gamma-33P]ATP
observable: pIC50
Note on units: pIC50 is unitless, being -log10 of a concentration expressed in mol/L.

Worked set:
# compound, pIC50
measured = [
    ("NCCC(=O)Nc1cccc2c1nc(C(F)F)n2-c1nc(N2CCOCC2)nc(N2CCOCC2)n1", 6.07),
    ("CN(C)CCOc1cccc2c1nc(C(F)F)n2-c1nc(N2CCOCC2)nc(N2CCOCC2)n1", 7.46),
    ("OCC(O)COc1cccc2c1nc(C(F)F)n2-c1nc(N2CCOCC2)nc(N2CCOCC2)n1 (stereo not drawn)", 7.92),
    ("CN(C)CC(O)COc1cccc2c1nc(C(F)F)n2-c1nc(N2CCOCC2)nc(N2CCOCC2)n1 (stereo not drawn)", 7.48),
]

// pIC50 lookup, compound = "FC(F)c1nc2c(OCCN3CCOCC3)cccc2n1-c1nc(N2CCOCC2)nc(N2CCOCC2)n1" , result: 6.89

// pIC50 lookup, compound = "CN(C)CCCOc1cccc2c1nc(C(F)F)n2-c1nc(N2CCOCC2)nc(N2CCOCC2)n1" , result: 7.96

// pIC50 lookup, compound = "OCCCOc1cccc2c1nc(C(F)F)n2-c1nc(N2CCOCC2)nc(N2CCOCC2)n1" , result: 8.00

// pIC50 lookup, compound = "CN(C)CCC(=O)Nc1cccc2c1nc(C(F)F)n2-c1nc(N2CCOCC2)nc(N2CCOCC2)n1" , result: 6.31
